Entries and their Plant response rating (0 to 100 scale), Corn
Tested on: corn (Zea mays)
Test: Test A pre-/postemergence greenhouse herbicide test, visual injury rating 0-100
Assay type: in vivo
Conditions: Postemergence, 1000 g ai/ha
Answer field: number only, no words.

These solved cases illustrate the format of a correct answer.
N#CN=C(c1ccccc1)c1c[nH]nc1-c1cc(Cl)cc(Cl)c1: 0
Fc1ccccc1NN=C(c1ccccc1)c1c[nH]nc1-c1cc(Cl)cc(Cl)c1: 0
CCn1cc(C(=O)c2cncc(F)c2)c(-c2cc(Cl)cc(Cl)c2)n1: 0

Problem: For corn (Zea mays), provide Plant response rating (0 to 100 scale), Corn of Cn1cc(C(=O)c2ccccc2)c(-c2cc(Br)cc(Br)c2)n1 please.
Solution: 0

Problem: For corn (Zea mays), provide Plant response rating (0 to 100 scale), Corn of Cn1cc(C(=NN2CCCC2)c2ccccc2)c(-c2cc(Cl)c(Cl)c(Cl)c2)n1 please.
Solution: 0

Problem: For corn (Zea mays), provide Plant response rating (0 to 100 scale), Corn of Clc1cccc(NN=C(c2ccccc2)c2c[nH]nc2-c2cc(Cl)cc(Cl)c2)c1 please.
Solution: 0

Problem: For corn (Zea mays), provide Plant response rating (0 to 100 scale), Corn of N=C(c1ccccc1)c1c[nH]nc1-c1cc(F)cc(F)c1 please.
Solution: 0

Problem: For corn (Zea mays), provide Plant response rating (0 to 100 scale), Corn of ON=C(c1ccccc1)c1c[nH]nc1-c1cc(Cl)cc(Cl)c1 please.
Solution: 0

Problem: For corn (Zea mays), provide Plant response rating (0 to 100 scale), Corn of CCn1cc(C(=O)c2ccccc2)c(-c2cc(F)cc(Cl)c2)n1 please.
Solution: 0

Problem: For corn (Zea mays), provide Plant response rating (0 to 100 scale), Corn of CCn1cc(C(=O)c2ccccc2)c(-c2cc(Br)cc(Br)c2)n1 please.
Solution: 0

###

Test system: cocklebur (common cocklebur, Xanthium strumarium)
Experiment: Test C postemergence greenhouse test, plant response rating 0-100
Type: in vivo
Conditions: 250 g ai/ha, scale 0 to 100
Entries and their Plant response rating, Cocklebur

Problem: For cocklebur (common cocklebur, Xanthium strumarium), provide Plant response rating, Cocklebur of CCn1cc(C(=O)c2ccccc2)c(-c2cc(Br)cc(Br)c2)n1 please.
Solution: 15

Problem: For cocklebur (common cocklebur, Xanthium strumarium), provide Plant response rating, Cocklebur of Fc1ccccc1NN=C(c1ccccc1)c1c[nH]nc1-c1cc(Cl)cc(Cl)c1 please.
Solution: 70

Problem: For cocklebur (common cocklebur, Xanthium strumarium), provide Plant response rating, Cocklebur of Cn1cc(C(=O)c2cccs2)c(-c2cc(Cl)cc(Cl)c2)n1 please.
Solution: 30

Problem: For cocklebur (common cocklebur, Xanthium strumarium), provide Plant response rating, Cocklebur of CC(C)n1cc(C(=O)c2ccccc2)c(-c2cc(Cl)cc(Cl)c2)n1 please.
Solution: 30

Problem: For cocklebur (common cocklebur, Xanthium strumarium), provide Plant response rating, Cocklebur of CCCn1cc(C(=O)c2ccccc2)c(-c2cc(Cl)cc(Cl)c2)n1 please.
Solution: 35

###

Tested on: arrowleaf sida (Sida rhombifolia)
Test: Test E pre-/postemergence greenhouse test, plant response rating 0-100
Format: in vivo
Settings: Sida rhombifolia, post-emergence; Postemergence, 250 g ai/ha; scale 0 to 100
VALUE TYPE: pest or weed control at 250 g/ha (%)
The reply should contain only the number, in %.

These solved cases illustrate the format of a correct answer.
COCC(=O)n1cc(C(=O)c2ccccc2)c(-c2cc(Cl)cc(Cl)c2)n1 [Compound 16]: 98
C#CCn1cc(C(=O)c2ccccc2)c(-c2cc(Cl)cc(Cl)c2)n1 [Compound 39]: 90
Clc1cc(Cl)cc(-c2n[nH]cc2C(=NN2CCCC2)c2ccccc2)c1 [Compound 30]: 80

Problem: I would be grateful if you could share the reported pest or weed control at 250 g/ha for Cn1cc(C(=O)c2ccccc2)c(-c2cc(Cl)cc(Cl)c2)n1 [Compound 54] .
Solution: 75
